Data credit: patent US20260049076A1

Exercise: state measured IC50 for each of the molecules provided.
# TGT: human DGKζ (Homo sapiens, UniProt Q13574)
# Construct: TVMV protease cleavage site (C); Hexa-His (C)
# Sequence (Q13574 with tags, fused parts or gaps isoform Q13574-4): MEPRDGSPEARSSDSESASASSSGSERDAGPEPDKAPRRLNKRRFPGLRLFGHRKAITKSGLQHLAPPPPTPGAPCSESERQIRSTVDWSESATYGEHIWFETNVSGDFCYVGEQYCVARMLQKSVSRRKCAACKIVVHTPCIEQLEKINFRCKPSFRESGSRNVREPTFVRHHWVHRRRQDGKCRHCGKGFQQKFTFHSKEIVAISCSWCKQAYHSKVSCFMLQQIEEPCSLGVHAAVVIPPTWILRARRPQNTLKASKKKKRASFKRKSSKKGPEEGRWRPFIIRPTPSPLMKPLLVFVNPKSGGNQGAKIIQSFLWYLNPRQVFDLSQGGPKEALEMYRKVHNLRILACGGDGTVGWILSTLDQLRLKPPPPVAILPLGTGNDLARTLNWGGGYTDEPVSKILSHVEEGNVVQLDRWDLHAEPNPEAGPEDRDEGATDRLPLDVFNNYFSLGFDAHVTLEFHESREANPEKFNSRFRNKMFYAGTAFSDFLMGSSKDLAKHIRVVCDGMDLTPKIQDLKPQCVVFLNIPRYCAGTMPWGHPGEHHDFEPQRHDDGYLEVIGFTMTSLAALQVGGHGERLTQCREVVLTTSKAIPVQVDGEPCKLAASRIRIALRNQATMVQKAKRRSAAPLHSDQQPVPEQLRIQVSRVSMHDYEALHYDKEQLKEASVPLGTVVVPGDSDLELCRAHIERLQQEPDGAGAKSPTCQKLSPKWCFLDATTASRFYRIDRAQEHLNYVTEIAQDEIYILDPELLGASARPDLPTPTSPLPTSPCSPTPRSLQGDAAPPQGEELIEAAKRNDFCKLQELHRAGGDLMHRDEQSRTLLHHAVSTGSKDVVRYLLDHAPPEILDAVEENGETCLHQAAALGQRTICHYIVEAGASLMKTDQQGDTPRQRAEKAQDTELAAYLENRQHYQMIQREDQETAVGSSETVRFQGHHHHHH
# PROTOCOL_TEXT: In vitro DGK inhibition assay, DGKζ liposome (LIPGLO) assay
# RUN_CONDITIONS: read-out: Enzyme Inhibition DGKzeta IC50
Give bare numbers, in µM.

Sample answers from the record:
Cn1c(=O)c(C#N)c(N(CC2CC2)c2ccc(C3CC3)cc2)c2ncccc21 = 1.4
Cn1c(=O)cc(N(CC2CC2)c2cccc(-c3cccc(Cl)c3)c2)c2nc(C#N)ccc21 = 9.1
CC(C1CC1)N(C)c1c(C#N)c(=O)n(C)c2ccc(Br)nc12 (racemic) = 7.1
Cn1c(=O)cc(N(CC2CC2)c2ccc(-c3cccc(C(N)=O)c3)cc2)c2nc(C#N)ccc21 = 7.6
Cn1c(=O)cc(N(CC2CC2)c2cccc(-c3cccc(O)c3)c2)c2nc(C#N)ccc21 = 31
CC1CCC(N(C)c2c(C#N)c(=O)n(C)c3ccc(Br)nc23)CC1 (centres unmarked) = 31
Cn1c(=O)cc(N(Cc2ccccc2)CC2CC2)c2nc(C#N)ccc21 = 12

We next turn to a different molecule, shown below.
Param item = `CN(C)C(=O)c1cccc(-c2cccc(N(CC3CC3)c3cc(=O)n(C)c4ccc(C#N)nc34)c2)c1` ; retrieve measured IC50.
3.7
